- Assay notes: yeast display, Sf9 membrane polyspecificity reagent, FACS + sequencing; frameworks hold sequencing errors
Assay metric: polyreactivity (PSR sort gate)

| Sequence entry | Assay metric | Observed value |
| --- | --- | --- |
| QVQLVESGGGLVQAGGSLRLSCAASGRTFSKYTMGWYRQATGKERELVAVISRSGTRTYYADSVKGRFTISRDNAKNTVYLQMNSLKREDTAVYYCAAKDERRSFGMGYWGQGTQVTVSS | polyreactivity (PSR sort gate) | high polyreactivity |
| QVQLVESGGGLVQAGGSLRLSCAASGRTFYSYAMGWYRQAPGKERELVAAISRGGNTYYADSVKGRFTISRDNAKNTVYLQMNSLKPEDTAVYYCAVVRVTYYASIYHRGYDYWGQGTQVTVSS | polyreactivity (PSR sort gate) | low polyreactivity |
| QVQLVESGGGLVQAGGSLRLSCAAYGSTFRSYAMGWYRQAPGKERELVAAISYSGDSTYYADSVKGRFTISRDNAKNTVYLQMNSLKPEDTAVYYCAALRDWDFQCEPWKRYGYWGQGTLVTVSS | polyreactivity (PSR sort gate) | low polyreactivity |
| QVQLVESGGGLVQAGGSLRLSCAASGSIFPYVNAMGWYRQAPGKERELVASIPGGGGTKYADSVKGRFTISRDNAKNTVYLQMNSLKPEDTAVYYCNATSGNPASTARMNYWGQGTQVTVSS | polyreactivity (PSR sort gate) | low polyreactivity |
| QVQLVESGGGLVQAGGSLRLSCAASGRIFYRYAMGWYRQAPGKERELVARITSSGSTNYADSVKGRFTISRDNAKNTVYLQMNSLKPEDTAVYYCAARKLFIPKYYYWGQGTQVTVSS | polyreactivity (PSR sort gate) | high polyreactivity |

###

- Assay notes: yeast display, Sf9 membrane polyspecificity reagent, FACS + sequencing; frameworks hold sequencing errors

| Sequence entry | polyreactivity (PSR sort gate) |
| --- | --- |
| QVQLVESGGGLVQAGGSLRLSSAASGSIFYDNAMAGYRQAPGKERELVAVITVSGESTYYADSVKGRFTISRDNAKTTVYLQMNSLKPEDTAVYYCNTDAISGSHFWRYITFGYLDDYWGQGTQVTVSS | low polyreactivity |
| QVQLVESGGGLVQAGGSLRLSCAASGFTFPRYAMGWYRQAPGKERELVAAISYRGGSTYYADSVKGRFTISRDTAKNTVYLQMNSLKPEDTAVSYCNAVGGPVRGYPYDYWGQGTQVTVSS | high polyreactivity |
| QVQLEESGGGFVQAAGTLRLSCAPSGRIFLPYAMGWYRQAPGKEREFVAAITWGAGTTYYADSVKGRFTISRDNAKNTVYLQMNSLKPDDTAVYYCNARRRRAFSLYYYWGQGTQVTVSS | high polyreactivity |
| QVQLVESGGGLVQAGGSLRLSCAASGRIFVPYVMGWYRQAPGKERELVASISDSDTSTYYADSVKGRFTISRDNAKNTVYLQMNCLKPEDTAVYYCNVDYWGQGTQVTVSS | low polyreactivity |
| QVQLVESGGGLVQAGGSLRLSCAASGFTFQRYAKGWYRQAPGKERDLVAAITRNGGSTYYADSVKGRFTISRDNAKNTVYLQMNSLKPDDTAVYYCNAEWFQFYWYPHYKVTRYEYWGQVTQVTVSS | high polyreactivity |

###

- Assay notes: yeast display, Sf9 membrane polyspecificity reagent, FACS + sequencing; frameworks hold sequencing errors
Assay metric: polyreactivity (PSR sort gate)

| Sequence entry | Observed value |
| --- | --- |
| QVQLVESGGGLVQAGGSLSLSCAASGSTFTYYDMGWYRQAPGKERELVAAISSSGGRTYYSDSVKGRFTISRDNAKNTVYLQMNSLKPEDTAVYYCARVVRPTDGDYWGQGTQVTVSS | high polyreactivity |
| QVQLVESGGGLVQAGGSLRLICAASGFIFAWYAMGWYRQAPGKERELVAAITSGGRTYYADSVKGRFTISRDNAKNTVYLQMNSMKPEDTAVYYCATDAVDSHRPYKYGPQSGSWGQGTQVTVSS | high polyreactivity |
| QVQLVESGGGLVQAGGSLRLSCAASGLIFRRYALGWYRQAPGKERELVAVISSGGRTYYADSVKGRFTISRDNAKNTVYLQMNSLKPEDTAVYYCAARTRSYWGTYGSYHYDYWGQGTQVTVSS | high polyreactivity |
| QVQLVESGGGLVQAGGSLRLSCAASGFIFSYYAMGWYRQAPGKERELVAAITWDGGSTYYADSVKGRFTISRDNAKNTVYLQMNSLKPEDTAVYYCNAYYYYRRPLEGGYWGQGTQVTVSS | low polyreactivity |
| QVQLVESGGGLVQAGGSLRLSCAASGGTFTKNPMGWYRQAPGKERELVATITFSDGSTYYADSVKGRFTISRDNAKNTVYLQMNSLKPEDTAVYYCNARRSYFLRYGVNYWGQGTQVTVSS | low polyreactivity |
